Cited source: patent US20040101828A1

I'd appreciate it if you could supply Resistance Index, geometric mean (IC50 in the sample relative to NL43) values for the items below.
- System: HIV virus (recombinant virus carrying reverse transcriptase from patient plasma)
- EXPERIMENTAL DETAILS: Recombinant virus assay (RVA): susceptibility to reverse transcriptase inhibitors, recombinant viruses from patient samples
- Format: cell-based, HIV-1
- MEASUREMENT CONDITIONS: sample R2 (41L, 62V, 67N, 69N, 75I, 77L, 115F, 116Y, 151M, 181C, 184V, 190A, 208Y, 215F, 219Q), 6 tests
One number for each entry.

CHEMICAL STRING: O=C1Nc2ccc(Cl)cc2[C@@](C#CC2CC2)(C(F)(F)F)O1
NUMERIC VALUE: 74.9

--- query ---
query: // fetch HIV virus (recombinant virus carrying reverse transcriptase from patient plasma) Resistance Index, geometric mean (IC50 in the sample relative to NL43) for O=c1[nH]cnc2c1ncn2[C@H]1CC[C@@H](CO)O1
result: 26.9

* * *

I'd appreciate it if you could supply Resistance Index, geometric mean (IC50 in the sample relative to NL43) values for the items below.
- Test system: HIV virus (recombinant virus carrying reverse transcriptase from patient plasma)
- EXPERIMENTAL DETAILS: Recombinant virus assay (RVA): susceptibility to reverse transcriptase inhibitors, recombinant viruses from patient samples
- Type: cell-based, HIV-1
- MEASUREMENT CONDITIONS: sample R5 (215Y, 41L, 74V, 100I, 103N), 5 tests
Numbers only.

Example results:
CHEMICAL STRING: O=c1[nH]cnc2c1ncn2[C@H]1CC[C@@H](CO)O1
NUMERIC VALUE: 2.6
--
CHEMICAL STRING: Nc1ccn([C@@H]2CS[C@H](CO)O2)c(=O)n1
NUMERIC VALUE: 1.8

--- query ---
query: // fetch HIV virus (recombinant virus carrying reverse transcriptase from patient plasma) Resistance Index, geometric mean (IC50 in the sample relative to NL43) for Nc1nc(NC2CC2)c2ncn([C@H]3C=C[C@@H](CO)C3)c2n1
result: 1.7
